target: human NK3 (Homo sapiens); test: FLIPR calcium assay in antagonist mode (NKB EC70 challenge); conditions: stable cell line expressing human recombinant NK3; antagonist mode vs EC70 of NKB agonist
Sequence (P29371 whole entry): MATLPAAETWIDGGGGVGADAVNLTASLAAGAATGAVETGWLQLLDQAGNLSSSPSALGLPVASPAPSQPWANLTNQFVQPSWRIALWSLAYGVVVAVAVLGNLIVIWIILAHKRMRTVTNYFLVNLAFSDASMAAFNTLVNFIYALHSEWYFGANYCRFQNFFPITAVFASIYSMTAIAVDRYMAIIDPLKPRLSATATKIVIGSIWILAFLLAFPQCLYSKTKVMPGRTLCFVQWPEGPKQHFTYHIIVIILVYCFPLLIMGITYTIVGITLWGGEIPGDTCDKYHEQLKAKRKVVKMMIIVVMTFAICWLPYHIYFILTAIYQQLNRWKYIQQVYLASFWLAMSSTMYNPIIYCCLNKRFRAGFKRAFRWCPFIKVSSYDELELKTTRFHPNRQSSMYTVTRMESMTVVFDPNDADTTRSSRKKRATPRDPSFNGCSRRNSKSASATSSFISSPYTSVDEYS
ENDPOINT_NAME: IC50 (nM)

[a] C[C@]1(O)C[C@H](NC(=O)c2ccn3c(Cl)c(-c4ccccc4-c4cnn(C(F)(F)F)c4Cl)nc3c2)C1 [Compound 820]
[b] Cc1nn(C)cc1-c1ccccc1-c1nc2cc(C(=O)NC[C@H]3C[C@@H](O)C3(C)C)ccn2c1Cl [Compound 645]
API: POST /compare with a and b ; response names the item with higher IC50. Field: selected label. Fill in the label of the entry you choose.
b
(b: 2.02 nM, a: 0.77 nM)

[P] Cc1nn(C)cc1-c1ccccc1-c1nc2cc(C(=O)NC[C@H]3C[C@](C)(O)C3)ccn2c1Cl [Compound 629]
[Q] Cn1cc(-c2cc(F)cc(F)c2-c2nc3cc(C(=O)N[C@H]4C[C@](O)(CO)C4)ccn3c2Cl)c(F)n1 [Compound 922]
Looking at recorded values for IC50, does P or Q come in lower? To answer, give the label that identifies your chosen option.
P

----------
molecular target: UniProt P29371; test: FLIPR calcium assay in antagonist mode (NKB EC70 challenge); conditions: stable cell line expressing human recombinant NK3; antagonist mode vs EC70 of NKB agonist
ENDPOINT_NAME: IC50 (nM)

Value lookup for IC50; key = CC12CC(NC(=O)c3ccn4c(Cl)c(-c5c(F)cc(F)cc5-c5c[nH]nc5F)nc4c3)(CO1)C2 [Compound 790]
3.31

Which IC50 value belongs to Cc1nn(C)cc1-c1cc(F)ccc1-c1nc2cc(C(=O)NC34CNC(C3)C4)ccn2c1Cl [Compound 822] ?
9.61

I would be grateful if you could share the reported IC50 for Cc1c(-c2ccccc2-c2nc3cc(C(=O)N[C@H]4C[C@@](C)(C(=O)O)C4)ccn3c2C)cnn1C [Compound 295] .
131

[P] O=C(NC1CC(CO)(CO)C1)c1ccn2c(Cl)c(-c3c(F)cc(F)cc3-c3cnn(C4CC4)c3F)nc2c1 [Compound 851]
[Q] Cc1nn(C)cc1-c1ccccc1-c1nc2cc(C(=O)N[C@H]3C[C@H](C(C)(C)O)C3)ccn2c1Cl [Compound 793]
Compare P and Q and name the one whose reported IC50 is smaller. Respond with the label that goes with your answer.
Q
(Q: 1.19 nM, P: 1.93 nM)

----------
target: P-glycoprotein (P-gp) (Homo sapiens, UniProt P08183); construct: expressed in transfected cells; host or cells: MDR1-MDCK II; test: P-gp substrate assessment in MDR1-MDCK II cells; assay type: in vitro ADME; conditions: dog, MDCK-MDR1, pH 7.4
Sequence (P08183 whole entry): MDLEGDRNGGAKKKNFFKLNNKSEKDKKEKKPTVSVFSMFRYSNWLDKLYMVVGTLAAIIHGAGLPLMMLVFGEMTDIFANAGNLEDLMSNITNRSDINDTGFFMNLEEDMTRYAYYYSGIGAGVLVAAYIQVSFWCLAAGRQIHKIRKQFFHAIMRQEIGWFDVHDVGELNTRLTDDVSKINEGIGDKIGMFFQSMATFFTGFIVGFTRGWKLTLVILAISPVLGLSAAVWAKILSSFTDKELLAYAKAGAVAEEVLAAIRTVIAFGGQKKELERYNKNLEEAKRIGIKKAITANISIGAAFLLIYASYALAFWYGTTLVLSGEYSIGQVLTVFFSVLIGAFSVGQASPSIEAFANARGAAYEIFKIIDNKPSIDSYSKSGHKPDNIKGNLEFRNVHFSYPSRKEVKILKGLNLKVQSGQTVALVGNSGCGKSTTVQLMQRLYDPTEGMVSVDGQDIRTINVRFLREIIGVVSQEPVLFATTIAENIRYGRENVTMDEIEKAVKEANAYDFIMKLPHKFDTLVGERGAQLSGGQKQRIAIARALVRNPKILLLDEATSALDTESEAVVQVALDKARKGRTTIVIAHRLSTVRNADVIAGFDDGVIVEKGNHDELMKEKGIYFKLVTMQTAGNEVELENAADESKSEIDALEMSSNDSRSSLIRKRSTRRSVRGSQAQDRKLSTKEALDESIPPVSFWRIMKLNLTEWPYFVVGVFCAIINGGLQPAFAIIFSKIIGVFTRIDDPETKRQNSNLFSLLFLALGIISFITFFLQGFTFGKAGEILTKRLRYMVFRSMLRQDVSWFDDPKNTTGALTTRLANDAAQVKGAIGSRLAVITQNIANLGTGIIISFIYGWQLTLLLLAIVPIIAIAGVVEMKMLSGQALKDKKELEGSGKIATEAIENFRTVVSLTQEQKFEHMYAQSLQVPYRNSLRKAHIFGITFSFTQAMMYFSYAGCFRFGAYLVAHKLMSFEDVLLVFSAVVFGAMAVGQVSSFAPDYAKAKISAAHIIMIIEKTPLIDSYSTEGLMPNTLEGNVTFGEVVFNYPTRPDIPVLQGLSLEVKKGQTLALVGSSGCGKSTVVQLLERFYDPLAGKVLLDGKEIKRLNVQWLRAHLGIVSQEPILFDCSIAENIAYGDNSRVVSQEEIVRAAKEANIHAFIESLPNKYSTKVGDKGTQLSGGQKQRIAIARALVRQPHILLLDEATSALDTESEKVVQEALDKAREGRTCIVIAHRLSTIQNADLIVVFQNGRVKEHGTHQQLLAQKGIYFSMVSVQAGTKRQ
ENDPOINT_NAME: efflux ratio at 150 min, 2 μM
API note: the answer field is a bare number with no unit suffix.

What does the record list as efflux ratio at 150 min, 2 μM for `Cc1nn(C)cc1-c1ccccc1-c1nc2cc(C(=O)N[C@@H]3CO[C@H]4[C@@H]3OC[C@H]4O)ccn2c1Cl` ?
32.7

----------
Target: human NK3 (Homo sapiens)
Test: FLIPR calcium assay in antagonist mode (NKB EC70 challenge)
Details: stable cell line expressing human recombinant NK3; antagonist mode vs EC70 of NKB agonist
Excerpt: Stable Cell Lines: A human recombinant NK3 Tachykinin Receptor stable cell line was purchased from GenScript (Genscript, Cat. #M00201; GenBank Accession Number NM 001059). […] This bank of assay-ready frozen cells was later used in FLIPR assays to evaluate the potency and efficacy of NK3 antagonist test compounds. […] Calculation of NKB EC70: An EC70 concentration of NKB needed to be determined for competition against test antagonists prior to the compound screen. […]
ENDPOINT_NAME: IC50 (nM)

Would you please look over these solved cases?
For `Cc1nn(C)cc1-c1ccccc1-c1nc2cc(C(=O)N[C@@H]3CO[C@H]4[C@@H]3OC[C@H]4N)ccn2c1Cl` , what is its reported IC50?
8.45

Param item = `Cn1ncc(-c2cc(F)cc(F)c2-c2nc3cc(C(=O)N[C@H]4C[C@@](C)(O)C4)ccn3c2Cl)c1F` ; retrieve measured IC50.
6.91

Would you kindly share the measured IC50 for `Cc1nn(C)cc1-c1ccccc1-c1nc2cc(C(=O)NCC34CC(CO)(CCO3)C4)ccn2c1Cl` ?
0.59

[P] Cc1nn(C)cc1-c1cccc(F)c1-c1nc2cc(C(=O)N[C@H]3CO[C@H]4[C@@H]3OC[C@@H]4O)ccn2c1C#N
[Q] CC(C)(O)C12CC(NC(=O)c3ccn4c(F)c(-c5c(F)cccc5-c5c[nH]nc5F)nc4c3)(C1)C2
[R] Cn1cc(-c2ccccc2-c2nc3cc(C(=O)N4C[C@@H]5C[C@H]4C(=O)N5)ccn3c2Cl)c(C#N)n1
[S] Cc1nn(C)cc1-c1ccccc1-c1nc2cc(C(=O)N[C@H]3C[C@](C)(O)C3)ccn2c1Cl
Arrange by IC50, high to low. Respond with an ordered listing of the labels, as requested.
R, P, S, Q
(R: 12.5 nM, P: 4.64 nM, S: 3.19 nM, Q: 1.1 nM)

----------
molecular target: human NK3 (Homo sapiens); assay: FLIPR calcium assay in antagonist mode (NKB EC70 challenge); settings: stable cell line expressing human recombinant NK3; antagonist mode vs EC70 of NKB agonist
ENDPOINT_NAME: IC50 (nM)

Sample records with IC50:
What does the record list as IC50 for `Cc1nn(C)cc1-c1ccccc1-c1nc2cc(C(=O)NCc3cnc(N)nc3)ccn2c1Cl` ?
1.92

# IC50 lookup, item `CC(=O)NCCNC(=O)c1ccn2c(Cl)c(-c3ccccc3-c3cn(C)nc3C)nc2c1`
7.13

[I] Cc1nn(C)cc1-c1cccc(F)c1-c1nc2cc(C(=O)N3CCN(C(CO)CO)CC3)ccn2c1Cl
[II] Cn1cc(-c2cccc(F)c2-c2nc3cc(C(=O)N[C@H]4C[C@](C)(O)C4)ccn3c2Cl)c(F)n1
# min-compare on IC50 between I and II Which one? Tell me its label.
II

----------
target: human NK3 (Homo sapiens); test: FLIPR calcium assay in antagonist mode (NKB EC70 challenge); conditions: stable cell line expressing human recombinant NK3; antagonist mode vs EC70 of NKB agonist
ENDPOINT_NAME: IC50 (nM)

Here are 2 compounds together with their reported answers.
What IC50 value was documented for this compound, `Cc1c(-c2ccccc2-c2cn(C)nc2C(F)(F)F)nc2cc(C(=O)N[C@H]3CO[C@H]4[C@@H]3OC[C@H]4O)ccn12` ?
6.21

What value of IC50 has been reported for the following compound? `Cc1nn(C)cc1-c1ccccc1-c1nc2cc(C(=O)NCCS(N)(=O)=O)ccn2c1Cl`
2.65

[a] Cc1c(-c2c(F)cc(F)cc2-c2cn(C)nc2F)nc2cc(C(=O)N[C@H]3C[C@@](C)(O)C3)ccn12
[b] Cn1cc(-c2cccc(F)c2-c2nc3cc(C(=O)N[C@H]4C[C@@](C)(O)C4)ccn3c2Cl)cn1
Select one. Lower IC50: a or b Respond with the label that goes with your answer.
a
(a: 3.66 nM, b: 6.24 nM)

----------
target: human NK3 (Homo sapiens); assay: FLIPR calcium assay in antagonist mode (NKB EC70 challenge); details: stable cell line expressing human recombinant NK3; antagonist mode vs EC70 of NKB agonist
ENDPOINT_NAME: IC50 (nM)

[1] Cn1cc(-c2cccc(F)c2-c2nc3cc(C(=O)NC4CC5(CC(O)C5)C4)ccn3c2Cl)c(F)n1 (stereo not shown)
[2] Cc1nn(C)cc1-c1ccccc1-c1nc2cc(C(=O)N3CCc4c[nH]nc4C3)ccn2c1Cl
Between 1 and 2 , which one shows the larger IC50 value? Identify your pick by its label.
2

[1] Cn1cc(-c2cccc(F)c2-c2nc3cc(C(=O)N[C@@H]4CC[C@@H](CO)OC4)ccn3c2Cl)c(F)n1
[2] Cc1c(-c2ccccc2-c2nc3cc(C(=O)N[C@@H]4CO[C@H]5[C@@H]4OC[C@H]5O)ccn3c2Cl)cnn1C
[3] Cc1nn(C)cc1-c1ccccc1-c1nc2cc(C(=O)N[C@H]3CO[C@H]4[C@@H]3OC[C@H]4O)ccn2c1C#N
[4] Cc1nn(C)cc1-c1ccccc1-c1nc2cc(C(=O)N[C@H]3CO[C@H]4[C@@H]3OC[C@H]4O)ccn2c1Cl
Put the items in order so that reported IC50 rises from first to last. // format: requested-order list of labels
1, 4, 2, 3
(1: 1.01 nM, 4: 1.96 nM, 2: 6.6 nM, 3: 12.7 nM)

[P] CC1(O)CCN(C(=O)c2ccn3c(Cl)c(-c4c(F)cc(F)cc4-c4c[nH]nc4F)nc3c2)CC1
[Q] Cn1cc(-c2cccc(F)c2-c2nc3cc(C(=O)NC4CC5(COC5)C4)ccn3c2Cl)c(F)n1
Could you tell me which of P and Q has the lower IC50 reading? Reply briefly: the label of your chosen item.
Q
